target: X1BR2-GFP (C-terminal BRCT domain of XRCC1 fused to C-terminal GFP) (human, UniProt P18887 538-633); assay: GFP-fluorescence-based competition binding assay
pEC50: −log10 of the molar value.
Recorded pEC50 by entry

BINDER	pEC50
MBP-L3BR^844 (L3BR^832 lacking its 12 N-terminal residues, MBP fusion) (domain or fragment, human, UniProt P49916-3 844-922, looked up) TKVLLDIFTGVRLYLPPSTPDFSRLRRYFVAFDGDLVQEFDMTSATHVLGSRDKNPAAQQVSPEWIWACIRKRRLVAPC	6.17
MBP-L3BR^832 (C-terminal BRCT domain of DNA ligase IIIα, residues 832-922, N-terminal MBP fusion) (domain or fragment, human, UniProt P49916-3 832-922, looked up) EKRKAADETLCQTKVLLDIFTGVRLYLPPSTPDFSRLRRYFVAFDGDLVQEFDMTSATHVLGSRDKNPAAQQVSPEWIWACIRKRRLVAPC	5.91

Numbers sourced from paper PMC7797052.
